molecular target: UniProtKB P08908; assay: Agonist activity at human 5HT1A receptor expressed in C6 cells assessed as stimulation of [35S]GTP-gamma-S binding relative to 5-hydroxytryptamine; format: functional, cell-based
Sequence (P08908 whole entry): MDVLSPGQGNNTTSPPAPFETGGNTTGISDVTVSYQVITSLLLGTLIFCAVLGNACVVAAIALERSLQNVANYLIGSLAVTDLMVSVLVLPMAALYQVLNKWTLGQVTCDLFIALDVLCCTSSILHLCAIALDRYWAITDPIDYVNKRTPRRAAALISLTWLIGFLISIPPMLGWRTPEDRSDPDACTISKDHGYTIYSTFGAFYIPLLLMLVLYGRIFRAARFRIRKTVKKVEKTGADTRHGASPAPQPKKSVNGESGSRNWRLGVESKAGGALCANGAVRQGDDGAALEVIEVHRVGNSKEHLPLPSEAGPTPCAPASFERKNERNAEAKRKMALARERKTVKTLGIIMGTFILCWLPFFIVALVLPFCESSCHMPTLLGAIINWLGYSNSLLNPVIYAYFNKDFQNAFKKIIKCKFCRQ
Response key: yes (1) means Emax >= 80%; no (0) means Emax < 80%.

# Compound, Tested Target, Label
data = [
    ("O=C(c1ccc(F)c(Cl)c1)N1CCC(F)(CNCc2ccc(C(F)F)cn2)CC1", "UniProtKB P08908", "yes (1)"),
    ("O=C(c1ccc(F)c(Cl)c1)N1CCC(F)(CNCc2ncc(Cl)cn2)CC1", "UniProtKB P08908", "no (0)"),
    ("CN(C)c1ccnc(CNCC2(F)CCN(C(=O)c3ccc(F)c(Cl)c3)CC2)n1", "UniProtKB P08908", "no (0)"),
    ("O=C(c1ccc(F)c(Cl)c1)N1CCC(F)(CNCc2ncc(C(F)F)cn2)CC1", "UniProtKB P08908", "yes (1)"),
    ("CNc1nc(CNCC2(F)CCN(C(=O)c3ccc(F)c(Cl)c3)CC2)ncc1C", "UniProtKB P08908", "no (0)"),
    ("CC(=O)Nc1cccc(N2CCN(CCCCNS(=O)(=O)CC3CCCCC3)CC2)c1 [NALUZOTAN]", "UniProtKB P08908", "no (0)"),
]

###

We begin with a simple list: items and their reported ED50.
test system: Rattus norvegicus; assay: Antidepressant like activity in orally dosed rat after 60 mins by forced swimming test; assay type: functional; details: po, 1 h
Property Name: ED50 (mg/kg)

# Molecule, Unit Of Measurement, Relation Qualifier, Numeric Result
rows = [
    ("O=C(c1ccc(F)c(Cl)c1)N1CCC(F)(CNCc2ccc(CF)cn2)CC1", "mg/kg", "=", 0.17),
    ("O=C(c1ccc(F)c(Cl)c1)N1CCC(F)(CNCc2ncc(Cl)cn2)CC1", "mg/kg", "=", 0.03),
    ("CNc1nc(CNCC2(F)CCN(C(=O)c3ccc(F)c(Cl)c3)CC2)ncc1Cl", "mg/kg", "=", 0.32),
    ("O=c1[nH]c2ccccc2n1CCN1CCN(c2cccc(C(F)(F)F)c2)CC1", "mg/kg", ">", 320),
    ("O=C(c1ccc(F)c(Cl)c1)N1CCC(F)(CNCc2nccc(-c3ccco3)n2)CC1", "mg/kg", ">", 2.5),
    ("CCCN(CCC)C1CCc2cccc(O)c2C1 (centres undefined)", "mg/kg", "=", 0.75),
    ("Cc1cnc(CNCC2(F)CCN(C(=O)c3ccc(F)c(Cl)c3)CC2)nc1", "mg/kg", "=", 0.05),
    ("Cc1ccc(CNCC2(F)CCN(C(=O)c3ccc(F)c(Cl)c3)CC2)nc1", "mg/kg", "=", 0.06),
    ("CC(=O)Nc1cccc(N2CCN(CCCCNS(=O)(=O)CC3CCCCC3)CC2)c1", "mg/kg", ">", 40),
]

###

tested on: Rattus norvegicus; experiment: Induction of flat body posture in orally dosed rat as after 60 mins; assay type: functional; details: po, 1 h
Property Name: ED50 (mg/kg)

# Compound, Relation Qualifier, Numeric Result
rows = [
    ("O=c1[nH]c2ccccc2n1CCN1CCN(c2cccc(C(F)(F)F)c2)CC1", "=", 20),
    ("O=C(c1ccc(F)c(Cl)c1)N1CCC(F)(CNCc2ccc(C(F)F)cn2)CC1", "=", 4.2),
    ("CCCN(CCC)C1CCc2cccc(O)c2C1 (stereo not drawn)", ">", 40),
]

###

assay: Lipophilicity, log D of the compound; type: physicochemical; conditions: octanol/water

# Input Smiles, logD
measured = [
    ("Cc1cnc(CNCC2(F)CCN(C(=O)c3ccc(F)c(Cl)c3)CC2)nc1", 1.5),
    ("Cc1ccc(CNCC2(F)CCN(C(=O)c3ccc(F)c(Cl)c3)CC2)nc1", 2.6),
]

###

As shown below, each of these molecules has a reported pKi value.
Target: 5-hydroxytryptamine receptor 1A (Rattus norvegicus)
Sequence (P19327 whole entry): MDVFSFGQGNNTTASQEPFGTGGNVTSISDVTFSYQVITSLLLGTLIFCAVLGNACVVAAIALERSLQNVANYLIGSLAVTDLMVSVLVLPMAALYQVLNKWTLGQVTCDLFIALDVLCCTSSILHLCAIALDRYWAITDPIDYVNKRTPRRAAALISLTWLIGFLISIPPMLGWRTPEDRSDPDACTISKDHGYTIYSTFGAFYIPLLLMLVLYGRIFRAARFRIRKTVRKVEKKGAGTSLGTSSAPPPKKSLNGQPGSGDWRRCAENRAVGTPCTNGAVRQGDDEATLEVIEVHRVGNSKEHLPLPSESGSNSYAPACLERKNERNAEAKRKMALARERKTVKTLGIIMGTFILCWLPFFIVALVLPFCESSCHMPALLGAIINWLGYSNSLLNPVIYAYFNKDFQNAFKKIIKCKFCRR
pKi: −log10 of the molar value.
Property Name: pKi

# Input Smiles, Tested Target, Property Name, Relation Qualifier, Numeric Result
rows = [
    ("CCc1cnc(CNCC2(F)CCN(C(=O)c3ccc(F)c(Cl)c3)CC2)nc1", "5-hydroxytryptamine receptor 1A (Rattus norvegicus)", "pKi", "=", 7.25),
    ("O=C(O)c1ccc(CNCC2(F)CCN(C(=O)c3ccc(F)c(Cl)c3)CC2)nc1", "5-hydroxytryptamine receptor 1A (Rattus norvegicus)", "pKi", "<", 5.00),
    ("COC(=O)c1cnc(CNCC2(F)CCN(C(=O)c3ccc(F)c(Cl)c3)CC2)nc1", "5-hydroxytryptamine receptor 1A (Rattus norvegicus)", "pKi", "=", 6.66),
    ("Cc1cnc(CNCC2(F)CCN(C(=O)c3ccc(F)c(Cl)c3)CC2)nc1", "5-hydroxytryptamine receptor 1A (Rattus norvegicus)", "pKi", "=", 8.65),
    ("CC(=O)Nc1cccc(N2CCN(CCCCNS(=O)(=O)CC3CCCCC3)CC2)c1", "5-hydroxytryptamine receptor 1A (Rattus norvegicus)", "pKi", "=", 7.52),
    ("Cc1cnc(CNCC2(F)CCN(C(=O)c3ccc(F)c(Cl)c3)CC2)cn1", "5-hydroxytryptamine receptor 1A (Rattus norvegicus)", "pKi", "=", 7.18),
    ("CN(C)c1ccnc(CNCC2(F)CCN(C(=O)c3ccc(F)c(Cl)c3)CC2)n1", "5-hydroxytryptamine receptor 1A (Rattus norvegicus)", "pKi", "=", 8.64),
    ("O=C(c1ccc(F)c(Cl)c1)N1CCC(F)(CNCc2ccc(CO)cn2)CC1", "5-hydroxytryptamine receptor 1A (Rattus norvegicus)", "pKi", "=", 8.13),
    ("CNc1nc(CNCC2(F)CCN(C(=O)c3ccc(F)c(Cl)c3)CC2)ncc1C", "5-hydroxytryptamine receptor 1A (Rattus norvegicus)", "pKi", "=", 8.76),
    ("CNc1ccnc(CNCC2(F)CCN(C(=O)c3ccc(F)c(Cl)c3)CC2)n1", "5-hydroxytryptamine receptor 1A (Rattus norvegicus)", "pKi", "=", 8.32),
    ("O=C(c1ccc(F)c(Cl)c1)N1CCC(F)(CNCc2ncc(CO)cn2)CC1", "5-hydroxytryptamine receptor 1A (Rattus norvegicus)", "pKi", "=", 6.93),
    ("CNc1nc(CNCC2(F)CCN(C(=O)c3ccc(F)c(Cl)c3)CC2)ncc1Cl", "5-hydroxytryptamine receptor 1A (Rattus norvegicus)", "pKi", "=", 9.13),
    ("COc1ccnc(CNCC2(F)CCN(C(=O)c3ccc(F)c(Cl)c3)CC2)n1", "5-hydroxytryptamine receptor 1A (Rattus norvegicus)", "pKi", "=", 8.19),
]

###

test system: Rattus norvegicus; assay: Induction of flat body posture in orally dosed rat as after 60 mins; assay type: functional; details: po, 1 h
Below, each entry is listed alongside its reported ED50.
Property Name: ED50 (mg/kg)

# Input Smiles, Property Name, Relation Qualifier, Numeric Result
measured = [
    ("Cc1ccc(CNCC2(F)CCN(C(=O)c3ccc(F)c(Cl)c3)CC2)nc1", "ED50", "=", 1.4),
    ("O=C(c1ccc(F)c(Cl)c1)N1CCC(F)(CNCc2ccc(CF)cn2)CC1", "ED50", "=", 16),
    ("CC(=O)Nc1cccc(N2CCN(CCCCNS(=O)(=O)CC3CCCCC3)CC2)c1", "ED50", ">", 40),
    ("Cc1cnc(CNCC2(F)CCN(C(=O)c3ccc(F)c(Cl)c3)CC2)nc1", "ED50", "=", 8.3),
    ("O=C(c1ccc(F)c(Cl)c1)N1CCC(F)(CNCc2ccc(Cl)cn2)CC1", "ED50", "=", 4.9),
]

###

test: Bioavailability in orally dosed rat; assay type: ADME, organism-based; details: in vivo, po
Property Name: bioavailability

# Input Smiles, Property Name, Result
rows = [
    ("Cc1cnc(CNCC2(F)CCN(C(=O)c3ccc(F)c(Cl)c3)CC2)nc1", "bioavailability", "> 80%"),
]
